meta.source: ChEMBL document CHEMBL1154198

# System: Plasmodium falciparum
# Measurement protocol: ST_JUDE: Plasmodium falciparum 3D7 EC50 (uM) as measured by SYBR green dye
# Format: functional, organism-based

| Compound | Comparison symbol | EC50, µM |
| --- | --- | --- |
| CCCCOc1ccc(N2C(N)=NC(N)=NC2(C)C)cc1 | = | 2.79 |
| CCc1cccc(NC(=O)c2cc3c(-c4ccc(OC)c(OC)c4)nn(C)c3s2)c1 | > | 15 |
| CCCCCCCCCn1ccc(=N)cc1 | = | 0.835 |
| COc1ccc(OC)c(NC(=O)CSc2nc(-c3ccccc3Cl)ns2)c1 | = | 1.25 |
| O=C(Nc1ccc(F)c(Cl)c1)Nc1ccc(Cl)c(Cl)c1 | = | 5.41 |
| O=C(c1ccco1)N(Cc1ccccc1)c1cccc([N+](=O)[O-])c1 | > | 15 |
| CC(C)c1ccc(Nc2c(-c3ccccn3)nc3ccccn23)cc1 | > | 15 |
| Cc1cccc(N2COc3ccc(C(C)(C)C)cc3C2)c1 | > | 15 |
| COc1ccc(N2C(=O)c3cccnc3C2Nc2ccc(C)cc2Cl)cc1 (stereo not given) | = | 4 |
| C[n+]1ccc(/C=C/c2ccc3c(c2)OCO3)cc1 | = | 3.47 |
| COc1cccc(OCC(=O)NCc2ccccc2)c1 | > | 15 |
| O=C1c2ccccc2C(=O)c2cc(S(=O)(=O)N(CCO)CCO)ccc21 | = | 5.89 |
| Cc1ccc(S(=O)(=O)Nc2ccc(Nc3nc(C)cc(N4CCCC4)n3)cc2)cc1 | = | 0.919 |
| CCOc1ccccc1CN1CCN(Cc2cc(Br)ccc2O)CC1 | = | 2.48 |
| CCN(CC)c1cc(C)c2cc(NC(=O)c3ccc(F)cc3)ccc2n1 | > | 15 |
| O=C1CC(c2ccc(F)cc2F)C2=C(CC(c3ccc(F)cc3)CC2=O)N1 (stereo not given) | = | 4.71 |
| C#CCOc1ccc(C2C(C#N)=C(N)Oc3c2ccc2ccccc32)cc1OC (stereo not given) | = | 0.414 |
| Cc1ccc(CN2CCCN(Cc3ccc(F)cc3)C2c2ccccc2F)cc1 (stereo not given) | = | 4.18 |
| CN1/C(=C/c2cccc[n+]2CCO)Sc2ccccc21 | = | 1.79 |
| CCN1/C(=C/c2cccc[n+]2C)C=Cc2cc(C)ccc21 | = | 0.439 |
| CCCCCCn1c(=N)n(CC(O)COc2cccc(C)c2)c2ccccc21 (stereo not given) | = | 1.97 |
| O=[N+]([O-])c1ccc(NC(=S)Nc2cc(C(F)(F)F)cc(C(F)(F)F)c2)cc1 | = | 1.64 |
| CCCC(=O)N1CCN(c2ccc(NC(=O)c3cccc(OCC)c3)cc2Cl)CC1 | > | 15 |
| CCOC(=O)C1=C(C)N=c2s/c(=C\c3cc(Cl)ccc3O)c(=O)n2C1c1ccccc1 (stereo not given) | > | 15 |
| O=C(CN1C2=NCCN2c2ccccc21)c1ccc(Cl)cc1Cl | = | 3.28 |
| O=C(N/N=C/c1cc(Br)cc([N+](=O)[O-])c1O)NC12CC3CC(CC(C3)C1)C2 | > | 15 |
| COc1ccc(N2CCN(C3CCCN(Cc4cccc(SC)c4)C3)CC2)cc1 (stereo not given) | > | 15 |
| CCCOC(=O)c1cccc(NC(=O)C23CCC(C)(C(=O)O2)C3(C)C)c1 (stereo not given) | > | 15 |
| CCOC(=O)c1ccc2nc(C)cc(Nc3ccc(OC)cc3)c2c1 | = | 2.86 |
| Cc1cc(C)c[n+](C(C)C(=O)c2ccc(-c3ccccc3)cc2)c1 (stereo not given) | = | 2.86 |
| CCOc1ccc2nc(C)cc(Nc3ccc4c(c3)OCCO4)c2c1 | > | 15 |
| Cc1nnc(NCCN2CCOCC2)nc1O | > | 15 |
| C[n+]1ccccc1/C=C/c1ccc(O)cc1 | = | 3.18 |
| CCOc1cc(/C=C/c2ccc3cccc(O)c3n2)ccc1O | > | 15 |
| COC(=O)c1ccc(NC(=O)CN(Cc2ccc(Cl)cc2)S(=O)(=O)c2ccccc2)cc1 | = | 7.32 |
| CCN(CC)c1cc(C)c2cc(NC(=O)c3cccc([N+](=O)[O-])c3)ccc2n1 | = | 0.59 |
| Cc1cccc(/C=C/c2ccc3cccc(O)c3n2)c1O | = | 4.68 |
| O=[N+]([O-])c1ccc2ncnc(Nc3cc(Cl)ccc3O)c2c1 | = | 1.62 |
| CC[n+]1c(/C=C/c2ccc(N(C)C)cc2)sc2cc(NC(C)=O)ccc21 | = | 3.31 |
| COc1ccc(Cl)cc1NC(=O)C1c2ccccc2C(=O)N(CC(C)C)C1c1cccs1 (stereo not given) | = | 0.367 |
| CCCO/C(O)=C1\C(C)=NC2=C(C(=O)CC(c3ccc(OC)c(OC)c3)C2)C1c1ccccc1OC (stereo not given) | = | 0.276 |
| CSc1nnc(-c2cccc([N+](=O)[O-])c2)n1Cc1ccccc1 | = | 1.39 |
| Cc1ccc(NC(=O)Cn2c(C)c(C=O)c3ccccc32)cc1Cl | > | 15 |
| CCCN1C(=O)c2[nH]nc(-c3c(C)cc(C)cc3O)c2C1c1ccc(OC)c(OC)c1 (stereo not given) | > | 15 |
| CCCN(CCC)C(=O)c1ccc2c(Cl)c3c(nc2c1)CCCC3 | > | 15 |
